Data provenance: ChEMBL document CHEMBL1152321

- Tested on: MCF7
- Test Description: Resistance factor, ratio of IC50 for P-glycoprotein deficient wild type human MCF7 cells to IC50 for multidrug-resistant human NCI/ADR cells
- Format: functional
The threshold is inclusive: Ratio of exactly 10 counts as 1; values below receive 0.

Identify whether the reported Ratio of the following compound is 10 or greater: CCC(=O)O[C@H]1C(=O)[C@@]2(C)[C@H]([C@H](OC(=O)c3cccc(OC)c3)[C@]3(O)C[C@H](OC(=O)[C@H](O)[C@H](CC(C)C)NC(=O)C4CCCCC4)C(C)=C1C3(C)C)[C@]1(OC(C)=O)CO[C@@H]1C[C@@H]2O 0

Identify whether the reported Ratio of the following compound is 10 or greater: COc1ccc(CC(=O)O[C@H]2C(=O)[C@@]3(C)[C@H]([C@H](OC(=O)c4cccc(OC)c4)[C@]4(O)C[C@H](OC(=O)[C@H](O)[C@H](C=C(C)C)NC(=O)OC(C)(C)C)C(C)=C2C4(C)C)[C@]2(OC(C)=O)CO[C@@H]2C[C@@H]3O)cc1 0

Identify whether the reported Ratio of the following compound is 10 or greater: CCC(=O)O[C@H]1C(=O)[C@@]2(C)[C@H]([C@H](OC(=O)c3ccccc3)[C@]3(O)C[C@H](OC(=O)[C@H](O)[C@H](CC(C)C)NC(=O)C4CCCCC4)C(C)=C1C3(C)C)[C@]1(OC(C)=O)CO[C@@H]1C[C@@H]2O 1

Identify whether the reported Ratio of the following compound is 10 or greater: CCC(=O)O[C@H]1C(=O)[C@@]2(C)[C@H]([C@H](OC(=O)c3cccc(OC)c3)[C@]3(O)C[C@H](OC(=O)[C@H](O)[C@H](CC(C)C)NC(=O)C4CC4)C(C)=C1C3(C)C)[C@]1(OC(C)=O)CO[C@@H]1C[C@@H]2O 1

Identify whether the reported Ratio of the following compound is 10 or greater: COc1cccc(C(=O)O[C@H]2[C@@H]3[C@]4(OC(C)=O)CO[C@@H]4C[C@H](O)[C@@]3(C)C(=O)[C@H](OC(=O)OCc3ccccc3)C3=C(C)[C@@H](OC(=O)[C@H](O)[C@H](C=C(C)C)NC(=O)OC(C)(C)C)C[C@]2(O)C3(C)C)c1 0

Identify whether the reported Ratio of the following compound is 10 or greater: C=CC[C@H](NC(=O)OC(C)(C)C)[C@@H](O)C(=O)O[C@H]1C[C@@]2(O)[C@@H](OC(=O)c3cccc(OC)c3)[C@@H]3[C@]4(OC(C)=O)CO[C@@H]4C[C@H](O)[C@@]3(C)C(=O)[C@H](OC(=O)CC)C(=C1C)C2(C)C 1

Identify whether the reported Ratio of the following compound is 10 or greater: CCC(=O)O[C@H]1C(=O)[C@@]2(C)[C@H]([C@H](OC(=O)c3ccccc3)[C@]3(O)C[C@H](OC(=O)[C@H](O)[C@H](C=C(C)C)NC(=O)OC(C)(C)C)C(C)=C1C3(C)C)[C@]1(OC(C)=O)CO[C@@H]1C[C@@H]2O 1

Identify whether the reported Ratio of the following compound is 10 or greater: CCC(=O)O[C@H]1C(=O)[C@@]2(C)[C@H]([C@H](OC(=O)c3cccc(OC)c3)[C@]3(O)C[C@H](OC(=O)[C@H](O)[C@H](C=C(C)C)NC(=O)OC4CCCCC4)C(C)=C1C3(C)C)[C@]1(OC(C)=O)CO[C@@H]1C[C@@H]2O 0
